target: human orexin-2 receptor (Homo sapiens (Human), UniProt O43614); experiment: In vitro intracellular calcium measurements (FLIPR), antagonistic activity on orexin-2 receptor; format: cell-based; conditions: CHO cells expressing human orexin-2 receptor; FLIPR; 3 nM orexin-A agonist; 120 min antagonist incubation; geometric mean if determined several times; read-out: IC50 OX2
Sequence (O43614 whole entry): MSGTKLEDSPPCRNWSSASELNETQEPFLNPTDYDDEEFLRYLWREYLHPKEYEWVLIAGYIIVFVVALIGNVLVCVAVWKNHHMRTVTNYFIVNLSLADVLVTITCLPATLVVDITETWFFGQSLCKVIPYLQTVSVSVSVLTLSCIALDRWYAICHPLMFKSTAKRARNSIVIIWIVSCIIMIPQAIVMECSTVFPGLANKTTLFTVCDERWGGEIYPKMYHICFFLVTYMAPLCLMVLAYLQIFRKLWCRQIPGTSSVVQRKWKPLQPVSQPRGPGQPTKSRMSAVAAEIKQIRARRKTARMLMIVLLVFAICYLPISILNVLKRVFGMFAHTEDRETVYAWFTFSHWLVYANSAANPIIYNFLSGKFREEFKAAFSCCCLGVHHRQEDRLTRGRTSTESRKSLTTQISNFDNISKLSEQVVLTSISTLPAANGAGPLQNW
# log10(IC50) per record follows
A value of 2 here means IC50 of 100 in nM, since values are log10.

Observe how each entry below is paired with its result.
[
  {
    "molecule": "Cc1ccc(C(=O)N2C[C@@H](C)OC[C@H]2Cc2cccc(-c3ncccn3)c2)c(-n2nccn2)c1 [Example 110]",
    "quantity": "log10(IC50)",
    "data.value": 2.25
  },
  {
    "molecule": "Cc1ccc(C(=O)N2CCOC[C@H]2Cc2cc(Cl)cc(-n3nccn3)c2)c(-n2nccn2)c1 [Example 105]",
    "quantity": "log10(IC50)",
    "data.value": 2.00
  },
  {
    "molecule": "Cc1ccc(-n2nccn2)c(C(=O)N2CCO[C@@H](C)[C@H]2Cc2cccc(-n3nccn3)c2)c1 (single isomer, unassigned) [Example 162]",
    "quantity": "log10(IC50)",
    "data.value": 3.40
  },
  {
    "molecule": "Cc1ccc(-n2nccn2)c(C(=O)N2C[C@@H](C)OC[C@H]2Cc2cc(-c3ncccn3)ccc2F)c1 [Example 147]",
    "quantity": "log10(IC50)",
    "data.value": 2.23
  },
  {
    "molecule": "O=C(c1ccccc1-n1nccn1)N1CCOC[C@H]1Cc1cc(-n2nccn2)ccc1Cl [Example 126]",
    "quantity": "log10(IC50)",
    "data.value": 3.17
  },
  {
    "molecule": "O=C(c1cc(F)c(F)cc1-n1nccn1)N1CCOC[C@H]1Cc1cccc(-c2ncon2)c1 [Example 80]",
    "quantity": "log10(IC50)",
    "data.value": 2.81
  }
]

Continue with the next molecule.
Q) Endpoint output: log10(IC50) of COc1ccc(-n2nccn2)c(C(=O)N2CCOC[C@H]2Cc2cccc(-c3ncccn3)c2)c1 [Example 50] . Value?
A) 2.97

###

target: human orexin-1 receptor (Homo sapiens (Human)); test: In vitro intracellular calcium measurements (FLIPR), antagonistic activity on orexin-1 receptor; format: cell-based; settings: CHO cells expressing human orexin-1 receptor; FLIPR; 3 nM orexin-A agonist; 120 min antagonist incubation; geometric mean if determined several times; read-out: IC50 OX1
Sequence (O43613 whole entry): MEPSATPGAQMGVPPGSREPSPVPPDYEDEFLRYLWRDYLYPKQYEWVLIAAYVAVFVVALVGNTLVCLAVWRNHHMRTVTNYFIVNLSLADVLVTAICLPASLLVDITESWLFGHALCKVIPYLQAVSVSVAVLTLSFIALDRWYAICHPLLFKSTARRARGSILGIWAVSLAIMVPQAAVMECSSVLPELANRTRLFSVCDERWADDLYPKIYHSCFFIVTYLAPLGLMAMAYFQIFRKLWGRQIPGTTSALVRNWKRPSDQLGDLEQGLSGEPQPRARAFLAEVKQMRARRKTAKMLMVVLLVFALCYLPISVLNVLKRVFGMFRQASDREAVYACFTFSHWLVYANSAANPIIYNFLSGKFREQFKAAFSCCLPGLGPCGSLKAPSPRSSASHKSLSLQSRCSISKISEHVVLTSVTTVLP
quantity: pIC50
Just so you know, pIC50 here is -log10 of the concentration in molar units; reply with that number alone.

Q) Entry `COc1cc(C(=O)N2CCOC[C@H]2Cc2cc(-n3nccn3)ccc2F)c(-n2nccn2)cc1C` : reported pIC50 = ?
A) 7.96

Q) Fill in the blank: the reported pIC50 of `O=C(c1cc(F)c(F)cc1-n1nccn1)N1CCOC[C@H]1Cc1cccc(-n2nccn2)c1` is ____.
A) 8.00

Q) Value lookup for pIC50; key = `COc1ccc(C[C@@H]2COCCN2C(=O)c2c(C)cccc2-n2nccn2)cc1-c1ncon1`
A) 8.05

###

Parameter: concentration at 1 h. Scope: all listed entries.
experiment: Measurement of brain and systemic concentration after oral administration; assay type: in vivo; conditions: rat, brain; male wistar rats; oral 100 mg/kg; formulated in 10% PEG400/90% MC0.5%; sampled at 1 h; read-out: brain concentration [B]
Don't forget the unit after the number, please.

Q) # query: concentration at 1 h of entry `C[C@@H]1CN(C(=O)c2ccccc2-n2nccn2)[C@H](Cc2cccc(-n3nccn3)c2)CO1`
A) 529 ng/g

The reported numbers originate from patent US9150566B2.
